Data origin, for the record: ChEMBL document CHEMBL4251581

test system: Mycobacterium tuberculosis; experiment: Antimycobacterial activity against rifampicin-resistant Mycobacterium tuberculosis H37Rv ATCC 35828 RIF-R2; assay type: functional
MIC strictly less than 20 µg/mL = condition met. Otherwise condition not met.

[[record]]
smiles_str = "CO[C@H]1/C=C/O[C@@]2(C)Oc3c(C)c(O)c4c(O)c(c(/C=N/N5CCN(C)CC5)c(O)c4c3C2=O)NC(=O)/C(C)=C\\C=C\\[C@H](C)[C@H](O)[C@@H](C)[C@@H](O)[C@@H](C)[C@H](OC(C)=O)[C@@H]1C"
label_value = "condition met"

[[record]]
smiles_str = "NNC(=O)c1ccncc1"
label_value = "condition met"

[[record]]
smiles_str = "C[C@H]1[C@H](C)CC[C@]2(COC(=O)/C=C/c3ccccc3)CC[C@]3(C)C(=CC[C@@H]4[C@@]5(C)CCCNC(C)(C)[C@@H]5CC[C@]43C)[C@@H]12"
label_value = "condition not met"


Could you please tell me whether MIC recorded for CC1(C)CC[C@]2(COC(=O)/C=C/c3ccccc3)CC[C@]3(C)C(=CC[C@@H]4[C@@]5(C)CCCNC(C)(C)[C@@H]5CC[C@]43C)[C@H]2C1 is less than 20 µg/mL?
condition met

Could you please tell me whether MIC recorded for C[C@H]1[C@H](C)CC[C@]2(CO)CC[C@]3(C)C(=CC[C@@H]4[C@@]5(C)CCCNC(C)(C)[C@@H]5CC[C@]43C)[C@@H]12 is less than 20 µg/mL?
condition not met

Could you please tell me whether MIC recorded for CC1(C)CC[C@]2(CO)CC[C@]3(C)C(=CC[C@@H]4[C@@]5(C)CCCNC(C)(C)[C@@H]5CC[C@]43C)[C@H]2C1 is less than 20 µg/mL?
condition not met

Could you please tell me whether MIC recorded for COc1ccc(/C=C/C(=O)OC[C@]23CC[C@@H](C)[C@H](C)[C@@H]2C2=CC[C@@H]4[C@@]5(C)CCCNC(C)(C)[C@@H]5CC[C@@]4(C)[C@]2(C)CC3)cc1 is less than 20 µg/mL?
condition not met
